Exercise: for every item that follows, state its recorded MFI.
# targetSystem: T1, human BLyS (full length, arginine to histidine at position 132) on CHO-K1 cells (human, UniProt Q9Y275 1-285)
# T1 construct: also called hBLyS; CHO-K1 hBLyS
# T1 sequence (Q9Y275 whole entry R130H): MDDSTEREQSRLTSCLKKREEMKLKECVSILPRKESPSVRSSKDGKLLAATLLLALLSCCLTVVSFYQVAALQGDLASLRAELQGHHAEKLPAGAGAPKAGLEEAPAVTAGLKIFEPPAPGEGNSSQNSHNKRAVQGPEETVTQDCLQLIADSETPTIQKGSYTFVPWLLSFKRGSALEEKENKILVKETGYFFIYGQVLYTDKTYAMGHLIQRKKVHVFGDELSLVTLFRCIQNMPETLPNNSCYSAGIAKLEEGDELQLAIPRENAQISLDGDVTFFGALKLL
# assayDetails: flow cytometry, CHO-K1 hBLyS cells, antibody 2.67 nM
# number only, unit MFI dropped from output

**Query** Which measured MFI value corresponds to 8E7D9C7F5 (antibody, V domains shown, Mouse hybridoma monoclonal antibody purified on Protein G) VH: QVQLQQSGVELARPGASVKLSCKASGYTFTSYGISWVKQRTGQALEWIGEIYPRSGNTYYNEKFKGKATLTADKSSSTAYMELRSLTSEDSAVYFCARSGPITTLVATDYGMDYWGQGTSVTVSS VL: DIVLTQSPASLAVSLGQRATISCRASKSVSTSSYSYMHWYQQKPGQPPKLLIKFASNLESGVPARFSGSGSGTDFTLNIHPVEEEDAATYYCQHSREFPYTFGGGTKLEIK ?
**Result** 532

**Query** Which measured MFI value corresponds to 67A2E1D10 (antibody, V domains shown, Mouse hybridoma monoclonal antibody purified on Protein G) VH: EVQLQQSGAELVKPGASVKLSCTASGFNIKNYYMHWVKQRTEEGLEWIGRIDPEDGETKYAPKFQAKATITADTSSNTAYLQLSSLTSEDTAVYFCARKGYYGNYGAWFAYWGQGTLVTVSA VL: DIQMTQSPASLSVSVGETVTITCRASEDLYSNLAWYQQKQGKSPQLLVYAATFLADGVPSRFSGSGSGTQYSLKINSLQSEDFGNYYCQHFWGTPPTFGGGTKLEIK ?
**Result** 279
